Measured values drawn from PubChem BioAssay (NCI) for this set.

System: IGROV1 ovarian
Assay: NCI tumour cell line growth inhibition, 48 h
Can you tell me TGI for the items I'm about to list?

INPUT: Answer with the recorded TGI of COC(=O)c1ccccc1/C=C1\Cc2cc3c(cc2C1=O)CCC3 only.
OUTPUT: > 100 µM

INPUT: Answer with the recorded TGI of c1ccc(-c2nc3sccn3n2)cc1 only.
OUTPUT: > 100 µM

INPUT: Answer with the recorded TGI of C[C@@H](C(=O)O)c1ccc(-c2ccccc2)c(F)c1 only.
OUTPUT: > 100 µM

INPUT: Answer with the recorded TGI of CC(C)c1ccc2c(N=Nc3ccc(S(N)(=O)=O)cc3)c(O)[nH]c2c1 only.
OUTPUT: > 25 µM

INPUT: Answer with the recorded TGI of CC(C)=CCC[C@](C)(O)[C@H]1CC[C@]2(C)[C@@H]1[C@H](O)C[C@@H]1[C@@]3(C)CC[C@H](O[C@@H]4O[C@H](CO)[C@@H](O)[C@H](O)[C@H]4O)C(C)(C)[C@@H]3CC[C@]12C only.
OUTPUT: 29.8 µM

INPUT: Answer with the recorded TGI of Cc1ccc(Cl)cc1Nc1nc(C(F)(F)F)ccc1C(=O)N/N=C/c1c(Cl)cccc1Cl only.
OUTPUT: > 68.9 µM

INPUT: Answer with the recorded TGI of CCOC(=O)C1=C(N)Oc2c(sc3c(C)cccc23)C1c1ccc(Cl)cc1 (stereo not given) only.
OUTPUT: 15.4 µM

INPUT: Answer with the recorded TGI of NC(=O)Cc1ncn(-c2ccccc2)n1 only.
OUTPUT: > 100 µM

INPUT: Answer with the recorded TGI of CN(C)c1ccc(/C=C(\C#N)c2cc3ccccc3n2C)cc1 only.
OUTPUT: > 100 µM

INPUT: Answer with the recorded TGI of O=C(CCCCC(=O)N/N=C\c1ccccc1Cl)N/N=C\c1ccccc1Cl only.
OUTPUT: > 100 µM

* * *

Tested on: ACHN renal
Test: NCI tumour cell line growth inhibition, 48 h; in the data active = GI50 below about 0.43 µM; inactive = the rest
The reply should name one outcome from 1 (active), 0 (inactive)

INPUT: For COc1ccc(-c2cn(-c3ccc(Cl)cc3)c(=S)[nH]2)cc1OC , what call appears in the results of this test?
OUTPUT: 0

INPUT: For COc1cc(C(=O)NC2CCN(C)CC2)ccc1Nc1ncc2c(n1)N(C1CCCC1)CC(F)(F)C(=O)N2C , what call appears in the results of this test?
OUTPUT: 0

INPUT: For O=C(Nc1ncc(Cc2ccccc2)s1)c1ccc2c(c1)OCCO2 , what call appears in the results of this test?
OUTPUT: 1

INPUT: For O=C(c1ccccc1)c1ccc(Cl)c([N+](=O)[O-])c1 , what call appears in the results of this test?
OUTPUT: 0

INPUT: For O=C(CCCCCCC(=O)N/N=C/c1ccc(N(c2ccccc2)c2ccccc2)cc1)NO , what call appears in the results of this test?
OUTPUT: 0

* * *

Can you tell me TGI for the items I'm about to list?
Test system: CCRF-CEM leukemia
Assay: NCI tumour cell line growth inhibition, 48 h

INPUT: Answer with the recorded TGI of CC1(C)CC[C@]2(C(=O)n3ccnc3)CC[C@]3(C)[C@H](C(=O)C=C4[C@@]5(C)C=C(C#N)C(=O)C(C)(C)[C@@H]5CC[C@]43C)[C@@H]2C1 only.
OUTPUT: 0.0438 µM

INPUT: Answer with the recorded TGI of Nc1ccccc1/C=N\Nc1ccccc1 only.
OUTPUT: > 100 µM

INPUT: Answer with the recorded TGI of Cc1nc2c(=O)[nH]c3ccccc3c2o1 only.
OUTPUT: > 100 µM

INPUT: Answer with the recorded TGI of O=C(Nc1ncc(Cc2ccccc2)s1)c1ccc2c(c1)OCCO2 only.
OUTPUT: > 100 µM

INPUT: Answer with the recorded TGI of Nc1ccc2cc(S(=O)(=O)O)cc(O)c2c1N=Nc1ccc(NC(=O)Nc2ccc(N=Nc3c(N)ccc4cc(S(=O)(=O)O)cc(O)c34)c(S(=O)(=O)O)c2)cc1S(=O)(=O)O only.
OUTPUT: > 100 µM

INPUT: Answer with the recorded TGI of COC1OCC(OS(=O)(=O)c2ccc(C)cc2)C(OC(=O)c2ccccc2)C1OC(=O)c1ccccc1 (stereo unspecified) only.
OUTPUT: > 100 µM

INPUT: Answer with the recorded TGI of Cc1cccc2nc3n(c12)C(=O)c1ccccc1-3 only.
OUTPUT: > 100 µM

INPUT: Answer with the recorded TGI of O=C1Nc2ccccc2C1(c1ccc(O)c(F)c1)c1ccc(O)c(F)c1 only.
OUTPUT: 73.3 µM

INPUT: Answer with the recorded TGI of COc1cc(CNc2nc3ccccc3nc2-c2cccs2)cc(OC)c1OC only.
OUTPUT: 52.2 µM

INPUT: Answer with the recorded TGI of NC(=O)Cc1ncn(-c2ccccc2)n1 only.
OUTPUT: > 100 µM

INPUT: Answer with the recorded TGI of COC(=O)C(/C(=N/N)C(=O)Nc1ccc(C)c(C)c1)c1nc2ccc(Cl)cc2[nH]c1=O (stereo unspecified) only.
OUTPUT: > 100 µM

INPUT: Answer with the recorded TGI of O=c1oc2c3ccc4ccccc4c3n(CCN3CCOCC3)c2c2ccccc12 only.
OUTPUT: 15.2 µM

INPUT: Answer with the recorded TGI of O=C1OC(c2ccccc2)C2CC3CC4(CCC3CN12)OCCO4 (stereo unspecified) only.
OUTPUT: > 100 µM

INPUT: Answer with the recorded TGI of CCc1ccc(CCC(=O)Nc2ncc(Cc3cc(Cl)ccc3Cl)s2)o1 only.
OUTPUT: > 50 µM

INPUT: Answer with the recorded TGI of O=C(Nc1ccc(Cl)c(Cl)c1)C(=O)C(C1OC(=O)c2ccccc21)[N+](=O)[O-] (stereo unspecified) only.
OUTPUT: > 100 µM

INPUT: Answer with the recorded TGI of CC1=NN(c2nc(N)nc(C(C)Sc3cc(Cl)c(C)cc3S(N)(=O)=O)n2)C(C)(C)C1 (stereo unspecified) only.
OUTPUT: > 10 µM

INPUT: Answer with the recorded TGI of CCCCCCCCCCCCOC1C(CNC(=O)C2OC3OC(C)(C)OC3C2NC(=O)CN2CCN(c3ccccn3)CC2)OC2OC(C)(C)OC21 (stereo unspecified) only.
OUTPUT: 5.5 µM

INPUT: Answer with the recorded TGI of CC1(C)CC(=O)C(CC(C(=O)C(=O)Nc2cc(C(F)(F)F)ccc2Cl)C(=O)c2ccco2)C(=O)C1 (stereo unspecified) only.
OUTPUT: > 100 µM

INPUT: Answer with the recorded TGI of CC(=O)OCc1cccc(O)c1C(=O)CCC=C(C)C only.
OUTPUT: > 100 µM

INPUT: Answer with the recorded TGI of O=C(CCCCCCC(=O)N/N=C/c1ccc(N(c2ccccc2)c2ccccc2)cc1)NO only.
OUTPUT: 16.4 µM

INPUT: Answer with the recorded TGI of C=CC1(c2ccc3ccccc3c2)OCC(CC)(CC)CO1 only.
OUTPUT: 40.1 µM

INPUT: Answer with the recorded TGI of COc1cc(-c2cc(/C=C/C(=O)c3ccc4c(c3)OCO4)[nH]n2)cc(OC)c1OC only.
OUTPUT: 5.96 µM

INPUT: Answer with the recorded TGI of CCOC(=O)C1c2[nH]c3ccccc3c2CCN1C(=O)c1ccco1 (stereo unspecified) only.
OUTPUT: > 10 µM

INPUT: Answer with the recorded TGI of C=C[C@@]1(C)CC2CC[C@]3(C)C(C)=CC(=O)CC3[C@]2(C)CC1O (stereo partly specified) only.
OUTPUT: > 100 µM

INPUT: Answer with the recorded TGI of COc1ccccc1CNCCCN1C(=O)c2ccc3c4c(ccc(c24)C1=O)C(=O)N(CCCNCCCCNCCCCN)C3=O only.
OUTPUT: > 33.4 µM

INPUT: Answer with the recorded TGI of O=C(CCCCC(=O)N/N=C\c1ccccc1Cl)N/N=C\c1ccccc1Cl only.
OUTPUT: > 100 µM

INPUT: Answer with the recorded TGI of CC(=O)Oc1ccc2ccc(=O)oc2c1OC(C)=O only.
OUTPUT: 46.1 µM

INPUT: Answer with the recorded TGI of CSC(=S)N/N=C/c1ccccc1 only.
OUTPUT: > 100 µM

INPUT: Answer with the recorded TGI of COc1ccc2nc3cccc([N+](=O)[O-])c3c(NCCN(CCO)CCO)c2c1 only.
OUTPUT: 0.247 µM

INPUT: Answer with the recorded TGI of C=C1C(=O)O[C@H]2[C@H]1CC/C(COC(=O)/C=C\C(=O)NCc1ccc(Cn3c(=O)sn(-c4ccc(OC)cc4)c3=O)cc1)=C\CC[C@@]1(C)O[C@@H]21 only.
OUTPUT: 4.27 µM

INPUT: Answer with the recorded TGI of O=c1c2c(sc3ccccc13)NCN(CCc1ccccc1)C2 only.
OUTPUT: > 100 µM

INPUT: Answer with the recorded TGI of O=C(N1CCOCC1)C1(c2ccccc2)CCNCC1 only.
OUTPUT: 78.8 µM

INPUT: Answer with the recorded TGI of CS(=O)(=O)N1CCN(Cc2cc3nc(-c4cccc5[nH]ncc45)nc(N4CCOCC4)c3s2)CC1 only.
OUTPUT: > 100 µM

INPUT: Answer with the recorded TGI of CC(=O)Nc1ccc(C2=N/C(=C\c3ccc(Cl)c(Cl)c3)C(=O)O2)cc1 only.
OUTPUT: > 100 µM

INPUT: Answer with the recorded TGI of CCOC(=O)C1(Cc2ccccc2)Cc2cc3c(cc2C1=O)CCC3 (stereo unspecified) only.
OUTPUT: > 100 µM

INPUT: Answer with the recorded TGI of CN(C)C1(C(=O)O)CC1 only.
OUTPUT: > 100 µM

INPUT: Answer with the recorded TGI of O=c1cc2n(c(=O)[nH]1)C1OC(C(O)C1O)[C@H]2CCO (stereo partly specified) only.
OUTPUT: > 100 µM

INPUT: Answer with the recorded TGI of CCOCCc1c(O)nc(SC)[nH]c1=O only.
OUTPUT: > 100 µM

INPUT: Answer with the recorded TGI of Cc1c(C)c(S(=O)(=O)N(CCCCCN)OCCCN)c(C)c2c1OC(C)(C)CC2 only.
OUTPUT: > 23.5 µM

INPUT: Answer with the recorded TGI of Oc1ccc2ccccc2c1-c1c(Nc2ccccc2)ccc2ccccc12 only.
OUTPUT: 44.7 µM

INPUT: Answer with the recorded TGI of CC(=O)c1c2c(cc3c1CC1(Cc4cc5c(cc4C1=O)CCC5)C3)CCC2 (stereo unspecified) only.
OUTPUT: > 73.7 µM
